Sourced from patent US11292787B2

# test-target: K-Ras protein (Homo sapiens, UniProt P01116, G12V)
# Construct: in SW620 cells, compound I-a-1 can effectively enhance the degradation of endogenous K-RAS-G12V proteins; endogenous in cells; host or cells: SW-620
# Sequence (P01116 1-188 isoform P01116-2 G12V): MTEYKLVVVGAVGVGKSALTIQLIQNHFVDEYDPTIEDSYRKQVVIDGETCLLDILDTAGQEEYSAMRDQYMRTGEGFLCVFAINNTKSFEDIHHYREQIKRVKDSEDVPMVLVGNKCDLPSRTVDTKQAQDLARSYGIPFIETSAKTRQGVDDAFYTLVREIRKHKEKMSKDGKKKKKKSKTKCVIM
# method-description: K-Ras protein degradation rate by Western blot in SW-620 cells
# Format: cell-based
# condition-description: 10 μM, SW-620 cells, 24 h, Western blot, relative to DMSO control; read-out: Degradation rate of compounds at 10 μM on Ras protein (%)
readout-label: percent K-Ras protein degradation (single point) at 10 µM (%)

> print(dat)
                                   compound                               test.target  unit.of.measurement  data.value
1  O=C(Nc1ccccc1)c1c[nH]c(-c2cnc3cccnn23)c1 [VIII-b-2]  K-Ras protein (Homo sapiens, UniProt P01116, G12V)                    %          10
2  O=C(NCc1c(F)cccc1Cl)c1coc(-c2n[nH]c3ncccc23)c1 [III-b-1]  K-Ras protein (Homo sapiens, UniProt P01116, G12V)                    %          35
3  O=C(NCc1cccc(F)c1)c1c[nH]c(-c2n[nH]c3ncccc23)c1 [III-f-44]  K-Ras protein (Homo sapiens, UniProt P01116, G12V)                    %          70
4  O=C(NCc1cccc(C(F)(F)F)c1)c1csc(-c2cnc3cccnn23)c1 [VIII-a-2]  K-Ras protein (Homo sapiens, UniProt P01116, G12V)                    %          60
5  O=C(NCc1cc(C(F)(F)F)ccc1F)c1csc(-c2n[nH]c3ccccc23)c1 [I-a-9]  K-Ras protein (Homo sapiens, UniProt P01116, G12V)                    %          30
6  O=C(Nc1ccccc1)c1ccc(-c2c[nH]c3ccccc23)cc1 [IV-e-2]  K-Ras protein (Homo sapiens, UniProt P01116, G12V)                    %          20
7  O=C(Nc1ccccc1)c1c[nH]c(-c2cnc3cnccn23)c1 [VII-b-2]  K-Ras protein (Homo sapiens, UniProt P01116, G12V)                    %          20
8  O=C(Nc1ccccc1)c1ccc(-c2cnc3cnccn23)s1 [VII-f-2]  K-Ras protein (Homo sapiens, UniProt P01116, G12V)                    %          30
9  O=C(NCc1c(F)cccc1Cl)c1ccc(-c2n[nH]c3ccccc23)s1 [I-f-1]  K-Ras protein (Homo sapiens, UniProt P01116, G12V)                    %          20

* * *

# test-target: K-Ras protein (Homo sapiens, UniProt P01116, G12V)
# Construct: in SW620 cells, compound I-a-1 can effectively enhance the degradation of endogenous K-RAS-G12V proteins; endogenous in cells; host or cells: SW-620
# method-description: K-Ras protein degradation rate by Western blot in SW-620 cells
# Format: cell-based
# condition-description: 10 μM, SW-620 cells, 24 h, Western blot, relative to DMSO control; read-out: Degradation rate of compounds at 10 μM on Ras protein (%)
Entries get a class label from measured percent K-Ras protein degradation (single point) at 10 µM. See ranges: lower range = under 20%, middle range = from 20% up to 40%, upper range = 40% and over

> print(dat)
                                 smiles.code         label
 1  O=C(NCc1c(F)cccc1Cl)c1ccc(-c2cnc3cnccn23)cc1  middle range
 2  O=C(NCc1c(F)cccc1Cl)c1csc(-c2n[nH]c3ncccc23)c1  middle range
 3  COc1ccc(NC(=O)c2c[nH]c(-c3n[nH]c4ncccc34)c2)cc1   lower range
 4  CC(C)(C)n1nc(-c2cc(C(=O)Nc3ccccc3)cs2)c2c(N)ncnc21  middle range
 5  O=C(NCc1c(F)cccc1F)c1c[nH]c(-c2n[nH]c3ncccc23)c1   lower range
 6  O=C(NCc1c(F)cccc1Cl)c1ccc(-c2cnc3ccccn23)s1   upper range
 7    O=C(NC1CCCCC1)c1ccc(-c2cnc3cnccn23)cc1  middle range
 8     O=C(Nc1ccccc1)c1coc(-c2cnc3cccnn23)c1   lower range
 9    O=C(Nc1ccccc1)c1ccc(-c2cnc3ccccn23)cc1   upper range
10  O=C(Nc1ccccc1)c1ccc(-c2n[nH]c3ccccc23)cc1   lower range
11  O=C(NCc1ccccn1)c1c[nH]c(-c2n[nH]c3ncccc23)c1  middle range
12  O=C(Nc1cccc(C(F)(F)F)c1)c1c[nH]c(-c2n[nH]c3ncccc23)c1   lower range
13  O=C(NCc1ccc(F)c(C(F)(F)F)c1)c1c[nH]c(-c2n[nH]c3ncccc23)c1   upper range
14  O=C(NCc1c(F)cccc1Cl)c1cccc(-c2n[nH]c3ccccc23)c1   lower range
15  Nc1cccc(CNC(=O)c2c[nH]c(-c3n[nH]c4ncccc34)c2)c1   upper range
16  O=C(NCc1cc(C(F)(F)F)ccc1F)c1csc(-c2cnc3cnccn23)c1  middle range
17  O=C(NCc1ccc(OC(F)(F)F)cc1)c1c[nH]c(-c2n[nH]c3ncccc23)c1  middle range
18  COc1ccccc1CNC(=O)c1c[nH]c(-c2n[nH]c3ncccc23)c1   upper range
19  O=C(NCc1cc(C(F)(F)F)ccc1F)c1csc(-c2n[nH]c3ncccc23)c1   upper range
20  O=S(=O)(Cc1ccc(Cl)cc1)c1c[nH]c(-c2n[nH]c3ncccc23)c1   lower range
21  O=S(=O)(NCc1c(F)cccc1Cl)c1c[nH]c(-c2n[nH]c3ncccc23)c1   lower range
22  O=C(NC1CCCCC1)c1c[nH]c(-c2cnc3cnccn23)c1   lower range
23  O=C(NCc1ccc(Cl)cc1)c1c[nH]c(-c2n[nH]c3ncccc23)c1   lower range
24  Cc1ccc(CNC(=O)c2c[nH]c(-c3n[nH]c4ncccc34)c2)cc1  middle range
25  O=C(NC1CCCCC1)c1c[nH]c(-c2n[nH]c3ncccc23)c1   lower range
26  O=S(=O)(Cc1ccccc1)c1c[nH]c(-c2n[nH]c3ncccc23)c1   lower range
27  O=C(NCc1ccc(Cl)c(C(F)(F)F)c1)c1c[nH]c(-c2n[nH]c3ncccc23)c1   upper range
28  O=C(NCc1cccc(Cl)c1)c1c[nH]c(-c2n[nH]c3ncccc23)c1   upper range
29  O=C(Nc1ccccc1)c1c[nH]c(-c2n[nH]c3ncccc23)c1   lower range
30  O=C(NC1CCCCC1)c1csc(-c2c[nH]c3ccccc23)c1  middle range
